Entries and their inhibition at 1 µM
- targetOfAssay: Aurora-A(h) (Homo sapiens, UniProt O14965)
- Construct: purchased Millipore (KinaseProfiler service); also Reaction Biology Corp. (Kinase Hotspot)
- Sequence (O14965 whole entry): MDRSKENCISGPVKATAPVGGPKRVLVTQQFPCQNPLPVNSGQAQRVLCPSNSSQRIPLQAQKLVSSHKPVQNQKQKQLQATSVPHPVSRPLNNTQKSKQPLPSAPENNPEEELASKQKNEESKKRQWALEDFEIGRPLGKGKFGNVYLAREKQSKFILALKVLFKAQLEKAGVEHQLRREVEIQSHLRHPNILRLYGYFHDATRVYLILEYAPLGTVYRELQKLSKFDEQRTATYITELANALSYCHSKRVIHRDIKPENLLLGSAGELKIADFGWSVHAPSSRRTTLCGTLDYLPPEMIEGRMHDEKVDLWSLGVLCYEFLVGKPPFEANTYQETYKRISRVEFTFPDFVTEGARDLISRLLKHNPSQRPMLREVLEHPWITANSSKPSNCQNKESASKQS
- assayProtocol: Aurora-A kinase assay (KinaseProfiler Service Assay Protocols, Millipore; also Kinase Hotspot, Reaction Biology Corp.)
- Format: biochemical
- conditionsUsed: compound concentration 1 μM

Answered cases to consult:
{"molecularString": "Cc1cc(Nc2nc(Sc3ccc(N)cc3)nc(C3CC3)n2)n[nH]1", "inhibition at 1 µM": "> 50%"}
{"molecularString": "CC(C)c1cnc(Nc2nc(Sc3ccc(NC(=O)C4CC4)cc3)nc(N3CCN(C)CC3)n2)s1", "inhibition at 1 µM": "> 90%"}
{"molecularString": "Cc1cnc(Nc2nc(NCCN(C)C)nc(Sc3ccc(NC(=O)C4CC4)cc3)n2)s1", "inhibition at 1 µM": "> 90%"}
{"molecularString": "CN1CCN(c2nc(Nc3nncs3)nc(Sc3ccc(NC(=O)C4CC4)cc3)n2)CC1", "inhibition at 1 µM": "< 50%"}

Here is the next item to consider.
With Aurora-A(h) (Homo sapiens, UniProt O14965) as the test system, `CCc1nc(Nc2cc(C)[nH]n2)nc(Sc2ccc(C(=O)NC3CC3)cc2)n1` showed inhibition at 1 µM of < 50%
